ASSAY_SYSTEM: T1, LNX2_2, Q8N448
T1 sequence (Q8N448 334-432, limits assumed, looked up): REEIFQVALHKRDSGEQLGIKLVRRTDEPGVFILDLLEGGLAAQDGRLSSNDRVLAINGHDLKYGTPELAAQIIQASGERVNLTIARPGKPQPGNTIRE
TEST_DETAILS: holdup assay
Design: key: below the threshold = too weak to quantify, mostly under pKd 3.1 to 4
CONDITION_DESCRIPTION: plain residues with an end cap or a label only (N-terminal biotin on a linker: ado-ado)
Please respond with reported pKd for every item in the list.
Quick one: just the number, no unit, thanks!

Q) Which pKd value is on record for NKSEPFLTWL [WWTR1, Q9GZV5] ?
A) 4.44

Q) Fill in: pKd of TNSKQGETTV [FZD1, Q9UP38] is ___
A) 4.71

Q) Which pKd is listed for FHSIKQSTAV [CRHR1, P34998] ?
A) 4.16

Q) What value of pKd has been reported for the following binder? EFKQTSSFLV [JAM1, Q9Y624]
A) 5.22

Q) I am curious: what pKd value has been reported for SKQFDKNAYV [CLDN10, P78369] ?
A) 4.1
